System: HT29 colon
assay-remarks: NCI-60 one-dose screen, 48 h (100 = growth as untreated, 0 = no growth, -100 = all killed)
recorded-conditions: 10 µM
The panel holds about 83,000 compounds, 20% with a hit somewhere; the sample as a whole holds those more often.
readout-name: growth (%)

INSERT INTO results (compound, readout_name, result_unit, measured_number) VALUES
  ('COc1cc(/C=C/C(=O)c2ccc(NC(=O)CSc3nnc(-c4c[nH]c5ccccc45)n3-c3ccccc3)cc2)cc(OC)c1OC', 'growth', '%', 51),
  ('CC(=O)C1=C(C)NC(SCC(=O)Nc2ccc(S(=O)(=O)Nc3cc(C)on3)cc2)=NC1c1ccccc1 (centres undefined)', 'growth', '%', 110),
  ('CC1CC(c2ccc(N(C)C)cc2)=NN1c1nc(O)c(C2=c3cc(Br)ccc3=NC2=O)s1 (centres undefined)', 'growth', '%', 83.5),
  ('O=C(CSc1nnc(-c2c[nH]c3ccccc23)n1-c1ccccc1)c1ccc(Cl)cc1', 'growth', '%', 42.6),
  ('Cc1cc(C)nc(SCC(=O)Nc2ccc(S(N)(=O)=O)cc2)n1', 'growth', '%', 118),
  ('Cc1ccn2c(C(=O)c3ccccc3)cc(-c3cc(-c4ccc(N(C)C)cc4)c(C#N)c(N)n3)c2c1', 'growth', '%', 63.1),
  ('CC(=O)c1ccc(Nc2nc(SC(C)C)nc(-c3ccccc3)c2C#N)cc1', 'growth', '%', 48.1),
  ('COc1ccccc1C(=O)NNC(=O)CSc1nc2c(c(=O)[nH]1)CCCC2', 'growth', '%', 113),
  ('CCN(CC)CCOc1ccc(C(=C(C)c2ccccc2)c2ccc(OCCN(CC)CC)cc2)cc1', 'growth', '%', -57.6);

---

Tested on: A549/ATCC NSCLC
assay-remarks: NCI-60 one-dose screen, 48 h (100 = growth as untreated, 0 = no growth, -100 = all killed)
recorded-conditions: 10 µM
The panel holds about 83,000 compounds, 20% with a hit somewhere; the sample as a whole holds those more often.
growth reference
readout-name: growth (%)

INSERT INTO measurements (compound, readout_name, measured_number) VALUES
  ('O=C1Nc2ccc(F)cc2/C1=C/c1cccc(OCc2ccccc2)c1', 'growth', 41.8),
  ('O=C(CSc1nnc(-c2c[nH]c3ccccc23)n1-c1ccccc1)c1ccc(Cl)cc1', 'growth', 37.5),
  ('N#Cc1ccc(-c2nn(-c3ccc(C(=O)O)cc3)cc2CNc2cc(Cl)cc(Cl)c2)cc1', 'growth', 53.7),
  ('O=C1Nc2cc(-c3ccc(NC(=O)c4cccc([N+](=O)[O-])c4)cc3)ccc2/C1=C/c1ccc[nH]1', 'growth', 94.5),
  ('CCCCSc1nc(Nc2ccc(/C(C)=N/NC(N)=S)cc2)c(C#N)c(-c2ccccc2)n1', 'growth', 12.8),
  ('Cc1ccc(C(=O)CSc2nnc(-c3c[nH]c4ccccc34)n2-c2ccccc2)cc1', 'growth', 53.3),
  ('CC1(C)CC[C@]2(C(=O)NCCCNCCCCNCCCN)CC[C@]3(C)C(=CC[C@@H]4[C@@]5(C)Cc6c([nH]c7ccccc67)C(C)(C)[C@@H]5CC[C@]43C)[C@H]2C1', 'growth', 86.5),
  ('N#Cc1c(-c2ccc(Cl)cc2)cc(-c2ccccc2)nc1OCc1ccccc1', 'growth', 73.8),
  ('CCCn1c(=O)c2[nH]c(-c3ccc(OCc4nc5ccc(C#N)cc5[nH]4)cc3)nc2n(CCC)c1=O', 'growth', 79.9),
  ('O=C(/C=C/Nc1ccccc1)c1ccc2c(c1)Nc1ccccc1S2', 'growth', 87.7),
  ('C=CC(=O)Nc1nc(-c2cccc(NS(=O)(=O)c3cccc4c(N(C)C)cccc34)c2)cs1', 'growth', 19.3),
  ('O=c1oc2ccc(-c3ccc(F)cc3F)cc2c(=O)n1-c1ccc(Cl)c(C(F)(F)F)c1', 'growth', 15),
  ('N#Cc1ccc(-c2nn(-c3ccc(C(=O)O)cc3)cc2CNc2cccc(Br)c2)cc1', 'growth', 55.7),
  ('O=C(CNc1nc(-c2ccccc2)cs1)Nc1ccc(Br)cc1', 'growth', -82.3),
  ('CN(C)CCNC(=O)OCCCCOc1cc(O)c2c(=O)cc(-c3ccccc3)oc2c1', 'growth', 4.88),
  ('COc1ccc(C2N(c3ccc(Br)cc3)N=C(C(C)=O)N2[C@H]2[C@H](OC(C)=O)O[C@H](COC(C)=O)[C@@H](OC(C)=O)[C@@H]2OC(C)=O)cc1 (some centres undefined)', 'growth', 66.1),
  ('COc1cc(-c2nc3cc(Cl)c(Cl)cc3[nH]2)ccc1OCc1nnc(-c2ccc(Br)cc2)o1', 'growth', 19.5),
  ('O=C(N/N=C/c1ccc(-c2cccc([N+](=O)[O-])c2)o1)c1[nH]c2ccc(Br)cc2c1-c1ccccc1', 'growth', 0.801),
  ('O=C1Nc2ccc(Cl)cc2/C1=C/c1ccc(OCc2ccc(Br)cc2F)cc1', 'growth', 34.1);

---

Test system: MOLT-4 leukemia
assay-remarks: NCI-60 one-dose screen, 48 h (100 = growth as untreated, 0 = no growth, -100 = all killed)
recorded-conditions: 10 µM
This is part of a sample that, as a whole, favours compounds with a hit. Of some 83,000 tested, about 20% had one in any assay.
Criterion: growth strictly less than 20%. Met: Criterion met. Not met: Criterion not met.

INSERT INTO measurements (compound, label_class) VALUES
  ('C/C(=N\N=C\c1ccc(N(C)C)cc1)c1ccc2c(c1)Nc1ccccc1S2', 'Criterion not met'),
  ('O=C(CN1CCN(c2ncnc3c2cnn3-c2ccccc2)CC1)Nc1nncs1', 'Criterion met'),
  ('CC(C)C1=C[C@@]23CC[C@@H]4[C@](C)(CCC[C@]4(C)C(=O)NCc4ccccc4)[C@H]2C[C@@H]1[C@H]1C(=O)CCC(=O)[C@H]13', 'Criterion met'),
  ('COc1ccc(-c2cc(C(=O)N=Nc3c(O)[nH]c4ccccc34)c3ccccc3n2)cc1', 'Criterion not met'),
  ('COC[C@@H](CC(C)C)N=C1N/C(=C\c2ccc3ncsc3c2)C(=O)N1C', 'Criterion met'),
  ('COc1ccc([C@H]2C(C(=O)c3ccc(Cl)cc3)C3(N[C@@H]2c2ccccc2)C(=O)Nc2ccc(Br)cc23)cc1 (some centres undefined)', 'Criterion met'),
  ('O=C(CSc1nnc(-c2ccc3nc(-c4ccccc4)[nH]c3c2)o1)Nc1ccc(Br)cc1', 'Criterion met'),
  ('O=c1oc2ccc(-c3ccc(F)cc3F)cc2c(=O)n1-c1ccc(F)c(Cl)c1', 'Criterion met'),
  ('O=C(CNc1nc(-c2ccccc2)cs1)Nc1cccc([N+](=O)[O-])c1', 'Criterion met');

---

Test system: CAKI-1 renal
assay-remarks: NCI-60 one-dose screen, 48 h
recorded-conditions: 10 µM
This is part of a sample that, as a whole, favours compounds with a hit. Of some 83,000 tested, about 20% had one in any assay. Active and inactive are the calls of the source. Rule for the calls: active = growth percent below 10; inactive = the rest.
Possible outcomes: active, inactive

INSERT INTO assay_data (compound, label_class) VALUES
  ('COc1ccc(CN2[C@H](C(=O)NCc3ccc(C(=O)NO)cc3)Cc3c([nH]c4ccccc34)[C@H]2C2CC2)cc1', 'inactive'),
  ('CN1CCO/C1=C(/NC(=O)c1ccc(Cl)cc1)[P+](c1ccccc1)(c1ccccc1)c1ccccc1', 'inactive'),
  ('COc1ccc(C(=O)/C=C/c2cc(F)cc(C(F)(F)F)c2)cc1S(N)(=O)=O', 'active'),
  ('CCCCCc1ccc(S(=O)(=O)N(C(C)=O)c2cc(-c3csc(N(C)C(C)=O)n3)ccc2N2CCN(C)CC2)cc1', 'inactive'),
  ('CN1CCN(c2ccc(Nc3nc(N4CCN(S(=O)(=O)c5ccc(Cl)cc5)CC4)c4sccc4n3)cc2)CC1', 'active'),
  ('O=C(Nc1cccc(C(F)(F)F)c1)c1cncc(C#Cc2cnc3ccc(N4CCOCC4)nn23)c1', 'active'),
  ('O=C1CCC(N2Cc3c(NCc4ccc(-c5ccccc5)cc4)cccc3C2=O)C(=O)N1 (stereo not drawn)', 'inactive'),
  ('OCCCNc1oc(-c2ccccc2)nc1[P+](c1ccccc1)(c1ccccc1)c1ccccc1', 'inactive');

---

Tested on: COLO 205 colon
assay-remarks: NCI-60 one-dose screen, 48 h (100 = growth as untreated, 0 = no growth, -100 = all killed)
recorded-conditions: 10 µM
About 83,000 compounds went through this panel and 20% of them were active in at least one assay; those are over-represented in the sample as a whole.
Criterion: growth strictly less than -40%. Met: 1. Not met: 0.

INSERT INTO results (compound, label_class) VALUES
  ('O=C(CSc1nnc(-c2ccc3nc(-c4ccc(Cl)cc4)[nH]c3c2)o1)Nc1ccc(Cl)cc1', 0),
  ('N#Cc1c(NC(=O)c2ccc(C(F)(F)F)c(Cl)c2)sc2c1CCC(=O)C2', 1),
  ('c1ccc(C(=C(c2ccc(OCCN3CCCCC3)cc2)c2ccc(OCCN3CCCCC3)cc2)C2CCCC2)cc1', 1),
  ('Cc1ccc(-c2nc(Nc3ccccc3C(=O)O)c3ccccc3n2)cc1', 0),
  ('Cc1ccc(C(=O)Nc2ccc(-n3c(C)nc4c(cnn4-c4ccccc4)c3=O)cc2)cc1', 0),
  ('CC1(C)CC[C@]2(C(=O)O)CC[C@]3(C)C(=CC[C@@H]4[C@@]5(C)C/C(=C/c6ccncc6)[C@H](O)C(C)(C)[C@@H]5CC[C@]43C)[C@@H]2C1', 0),
  ('COc1cc(C2CC(c3ccc(C)cc3)=Nc3c(N)nc(N)nc3N2)ccc1Oc1nc(Nc2ccc(F)cc2)nc(N(C)C)n1 (stereo not drawn)', 0),
  ('COc1cc2c(cc1OC)CN(CCCCOc1cc(O)c3c(=O)cc(-c4ccccc4)oc3c1)CC2', 1);
